Cited source for all entries: patent US20070021434A1

Test system: Huh-7 cells, genotype 1b HCV replicon
assay-protocol: Inhibition of HCV replication in cell culture, genotype 1b replicon
Type: cell-based, hepatitis C virus
measurement-context: Hepatitis C virus, Huh-7, 24 h, Huh-7, genotype 1b replicon; intracellular HCV RNA 24 h after 3 daily doses
endpoint: EC50
The answer consists of two parts: a number and, after it, its unit.

Problem: # get_value(readout='EC50', item= NCCCC[C@H](NC(=O)OCC1c2ccccc2-c2ccccc21)C(=O)Nc1ccc(CN)cc1 )
Result: 500 nM

====

target-or-system: HCV RdRp (NS5B) (UniProt P26663)
Sequence (P26663 whole entry, looked up): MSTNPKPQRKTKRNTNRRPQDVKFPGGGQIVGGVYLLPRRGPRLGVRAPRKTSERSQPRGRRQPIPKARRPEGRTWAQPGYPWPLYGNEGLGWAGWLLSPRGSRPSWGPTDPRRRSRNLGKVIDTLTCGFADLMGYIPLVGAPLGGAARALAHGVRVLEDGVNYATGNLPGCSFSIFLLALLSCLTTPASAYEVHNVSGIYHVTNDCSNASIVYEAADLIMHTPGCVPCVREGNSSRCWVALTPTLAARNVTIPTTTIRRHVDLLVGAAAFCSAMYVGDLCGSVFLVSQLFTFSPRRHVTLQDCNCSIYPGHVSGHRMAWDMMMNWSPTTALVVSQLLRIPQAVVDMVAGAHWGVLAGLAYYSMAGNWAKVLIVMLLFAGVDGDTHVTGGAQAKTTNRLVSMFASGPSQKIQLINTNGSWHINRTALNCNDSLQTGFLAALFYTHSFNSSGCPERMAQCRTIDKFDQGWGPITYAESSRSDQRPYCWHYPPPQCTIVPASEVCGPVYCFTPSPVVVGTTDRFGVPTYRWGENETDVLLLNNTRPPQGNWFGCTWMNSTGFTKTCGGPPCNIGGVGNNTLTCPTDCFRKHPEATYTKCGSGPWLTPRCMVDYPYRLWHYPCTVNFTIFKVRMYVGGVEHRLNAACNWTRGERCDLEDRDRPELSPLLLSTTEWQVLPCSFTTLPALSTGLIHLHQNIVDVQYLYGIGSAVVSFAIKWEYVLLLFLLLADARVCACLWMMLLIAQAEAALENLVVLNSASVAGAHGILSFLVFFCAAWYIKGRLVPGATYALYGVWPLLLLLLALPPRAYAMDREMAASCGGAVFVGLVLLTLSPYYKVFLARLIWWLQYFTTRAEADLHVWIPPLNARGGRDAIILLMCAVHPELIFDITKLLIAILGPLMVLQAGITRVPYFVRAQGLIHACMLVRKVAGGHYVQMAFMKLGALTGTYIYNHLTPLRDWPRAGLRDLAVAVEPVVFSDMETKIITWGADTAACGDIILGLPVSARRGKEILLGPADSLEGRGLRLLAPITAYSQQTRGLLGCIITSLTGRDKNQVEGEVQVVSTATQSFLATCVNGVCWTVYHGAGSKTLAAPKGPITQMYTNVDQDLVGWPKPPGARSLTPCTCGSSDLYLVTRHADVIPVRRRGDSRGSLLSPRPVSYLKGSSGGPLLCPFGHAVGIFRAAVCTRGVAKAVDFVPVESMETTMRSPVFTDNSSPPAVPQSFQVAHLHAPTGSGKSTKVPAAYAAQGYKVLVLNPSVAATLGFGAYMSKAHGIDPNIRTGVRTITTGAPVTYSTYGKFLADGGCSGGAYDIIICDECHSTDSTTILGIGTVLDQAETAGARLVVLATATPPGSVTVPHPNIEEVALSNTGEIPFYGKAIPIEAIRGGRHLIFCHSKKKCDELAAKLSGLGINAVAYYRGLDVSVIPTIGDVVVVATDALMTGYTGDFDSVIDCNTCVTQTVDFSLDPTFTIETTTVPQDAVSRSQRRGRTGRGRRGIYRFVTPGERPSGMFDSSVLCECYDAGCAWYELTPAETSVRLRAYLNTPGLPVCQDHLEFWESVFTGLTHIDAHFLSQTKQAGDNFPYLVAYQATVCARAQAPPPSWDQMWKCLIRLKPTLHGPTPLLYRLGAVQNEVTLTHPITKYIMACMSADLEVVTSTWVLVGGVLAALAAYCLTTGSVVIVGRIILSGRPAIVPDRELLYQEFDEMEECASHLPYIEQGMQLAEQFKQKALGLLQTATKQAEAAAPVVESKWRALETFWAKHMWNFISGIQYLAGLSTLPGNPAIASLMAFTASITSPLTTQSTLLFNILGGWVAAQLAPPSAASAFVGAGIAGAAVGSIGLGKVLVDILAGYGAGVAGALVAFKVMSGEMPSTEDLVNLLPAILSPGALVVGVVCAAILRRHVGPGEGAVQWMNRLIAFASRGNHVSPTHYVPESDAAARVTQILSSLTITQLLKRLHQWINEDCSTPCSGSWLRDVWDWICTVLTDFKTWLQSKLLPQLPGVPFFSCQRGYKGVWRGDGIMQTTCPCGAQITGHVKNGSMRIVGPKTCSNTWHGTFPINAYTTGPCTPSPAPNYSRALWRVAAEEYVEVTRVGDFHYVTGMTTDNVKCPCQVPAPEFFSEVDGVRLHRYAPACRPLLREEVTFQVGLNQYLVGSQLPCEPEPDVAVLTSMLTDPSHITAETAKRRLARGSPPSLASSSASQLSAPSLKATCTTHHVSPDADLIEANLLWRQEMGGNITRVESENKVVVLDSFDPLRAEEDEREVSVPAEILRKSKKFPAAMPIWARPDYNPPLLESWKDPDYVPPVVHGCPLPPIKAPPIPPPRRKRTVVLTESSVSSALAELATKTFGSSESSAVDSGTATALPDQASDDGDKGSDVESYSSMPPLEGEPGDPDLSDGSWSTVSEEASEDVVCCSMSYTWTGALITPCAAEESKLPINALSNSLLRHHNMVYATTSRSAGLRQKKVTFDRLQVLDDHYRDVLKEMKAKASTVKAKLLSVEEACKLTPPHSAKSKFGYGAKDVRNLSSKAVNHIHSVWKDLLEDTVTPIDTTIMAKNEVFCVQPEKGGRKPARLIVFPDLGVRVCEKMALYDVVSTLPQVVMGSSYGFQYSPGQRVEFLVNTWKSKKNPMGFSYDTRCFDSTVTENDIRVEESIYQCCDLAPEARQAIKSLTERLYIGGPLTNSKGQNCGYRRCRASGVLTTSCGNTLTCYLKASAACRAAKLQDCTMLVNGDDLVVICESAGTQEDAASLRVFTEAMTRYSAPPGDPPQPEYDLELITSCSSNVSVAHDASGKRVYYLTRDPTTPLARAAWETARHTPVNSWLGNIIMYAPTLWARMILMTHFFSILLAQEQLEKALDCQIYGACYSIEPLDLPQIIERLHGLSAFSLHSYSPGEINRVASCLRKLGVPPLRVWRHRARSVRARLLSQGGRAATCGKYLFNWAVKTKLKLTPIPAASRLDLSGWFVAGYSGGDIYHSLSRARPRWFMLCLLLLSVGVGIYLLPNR
Type: biochemical, hepatitis C virus
pIC50: −log10 of the molar value.
Below is a list of entries, each paired with its recorded pIC50 value.

Guide cases for pIC50, answers given:
| compound | target-or-system | obs-value |
| --- | --- | --- |
| O=C(CC1CNCCN1C(=O)NCc1ccccc1)Nc1ccc(C2CCCCC2)cc1 (stereo not shown) | HCV RdRp (NS5B) (UniProt P26663) | 4.30 to 5.00 |
| C[C@@H](N)C(=O)Nc1ccc(CN(C(=O)c2ccco2)C2CCCCC2)cc1 | HCV RdRp (NS5B) (UniProt P26663) | < 4.30 |
| NCCCC[C@H](NC(=O)Nc1ccc(OCc2ccccc2)cc1)C(=O)Nc1cccc2cc[nH]c12 | HCV RdRp (NS5B) (UniProt P26663) | 4.30 to 5.00 |
| Cc1ccc(NC(=O)[C@H](CCCCN)NC(=O)Nc2ccc(NCc3ccc(F)cc3)cc2)cc1 | HCV RdRp (NS5B) (UniProt P26663) | < 4.30 |
| Cc1ccc(NC(=O)[C@H](CCCCN)NC(=O)Nc2ccc(OCc3ccccn3)cc2)cc1 | HCV RdRp (NS5B) (UniProt P26663) | 4.30 to 5.00 |

Problem: # get_value(readout='pIC50', item= Cc1ccc(NC(=O)C(CCC(N)=O)NC(=O)OCC2c3ccccc3-c3ccccc32)cc1 (stereo not shown) )
Result: < 4.30

Problem: # get_value(readout='pIC50', item= COc1cccc(CNCC(=O)N[C@@H](CCCCN)C(=O)Nc2ccc(C)cc2)c1 )
Result: < 4.30

Problem: # get_value(readout='pIC50', item= NCc1ccc(CNC(=O)[C@@H](NC(=O)OCC2c3ccccc3-c3ccccc32)c2ccccc2)cc1 )
Result: 4.30 to 5.00

====

Below is a list of entries, each paired with its recorded IC50 value.
target-or-system: HCV RdRp (NS5B) (UniProt P26663)
Type: biochemical, hepatitis C virus

| compound | IC50 |
| --- | --- |
| NCCCC[C@H](NC(=O)Nc1ccc2c(c1)Cc1ccccc1-2)C(=O)Nc1ccc(C2CCCCC2)cc1 [Compound 226] | > 50 µM |
| Cc1ccc(NC(=O)C(CCCCN)NC(=O)CNCc2ccccc2C(F)(F)F)cc1 (centres unmarked) [Compound 350] | > 50 µM |
| Cc1ccc(NC(=O)[C@H](CCCCN)NC(=O)Nc2ccc(NCc3ccccc3)cc2)cc1 [Compound 224] | 10 to 50 µM |
| Cc1ccc(NC(=O)[C@H](CCCCN)NC(=O)Nc2ccc(OCc3cccnc3)cc2)cc1 [Compound 261] | > 50 µM |

Problem: # get_value(readout='IC50', item= Cc1ccc(NC(=O)[C@@H](CCCCN)NC(=O)Nc2ccc3c(c2)Cc2ccccc2-3)cc1 [Compound 173] )
Result: < 10 µM

Problem: # get_value(readout='IC50', item= Cc1ccc(NC(=O)C(CCCCN)NC(=O)c2ccc(F)c3ccccc23)cc1 (centres unmarked) [Compound 64] )
Result: > 50 µM

Problem: # get_value(readout='IC50', item= NCCC[C@H](NC(=O)OCC1c2ccccc2-c2ccccc21)C(=O)Nc1ccc(C2CCCCC2)cc1 [Compound 200] )
Result: < 10 µM

Problem: # get_value(readout='IC50', item= CCCCOc1ccc(NC(=O)N[C@@H](CCCCN)C(=O)Nc2ccc(C)cc2)cc1 [Compound 244] )
Result: > 50 µM

====

IC50 values recorded for HCV RdRp (NS5B)

Guide cases for IC50, answers given:
| compound | obs-value |
| --- | --- |
| Cc1ccc(NC(=O)[C@H](CCCCO)NC(=O)Nc2ccc(OCc3ccccc3)cc2)cc1 [Compound 309] | > 50 µM |
| N[C@@H](CNC(=O)OCC1c2ccccc2-c2ccccc21)C(=O)Nc1ccc(CN(C(=O)c2ccco2)C2CCCCC2)cc1 [Compound 17] | 10 to 50 µM |
| Cc1ccc(NC(=O)C(CCCCN)NC(=O)Cc2ccc3ccccc3c2)cc1 (stereo not shown) [Compound 48] | > 50 µM |

Switching to the query record.
Problem: Reported IC50 for HCV RdRp (NS5B), given NCCCCC[C@H](NC(=O)Nc1ccc(OCc2ccccc2)cc1)C(=O)Nc1ccc(C2CCCCC2)cc1 [Compound 121] ?
Result: < 10 µM

====

IC50 values recorded for UniProt P26663

| molecule | target-or-system | IC50 |
| --- | --- | --- |
| Cc1ccc(NC(=O)C2CC(OC(=O)CCN)CN2C(=O)OCC2c3ccccc3-c3ccccc32)cc1 (stereo not shown) | UniProt P26663 | > 50 µM |
| NCCCCCCNC(=O)[C@@H](NC(=O)OCC1c2ccccc2-c2ccccc21)c1ccccc1 | UniProt P26663 | 10 to 50 µM |
| NCCCC[C@@H](NC(=O)OCC1c2ccccc2-c2ccccc21)C(=O)Nc1ccc(C2CCCCC2)cc1 | UniProt P26663 | < 10 µM |

Switching to the query record.
Problem: Reported IC50 for UniProt P26663, given COc1ccc(-c2ccccc2)cc1NC(=O)NC(CCCCN)C(=O)Nc1ccc(C)cc1 (stereo not shown) ?
Result: > 50 µM

====

target-or-system: HCV RdRp (NS5B) (UniProt P26663)
endpoint: IC50

Guide cases for IC50, answers given:
| molecule | IC50 |
| --- | --- |
| COc1ccc(NC(=O)N[C@@H](CCCCN)C(=O)Nc2ccc(C)cc2)cc1 [Compound 300] | > 50 µM |
| O=CNCCCC[C@H](NC(=O)OCC1c2ccccc2-c2ccccc21)C(=O)Nc1ccc(Cl)c(Cl)c1 [Compound 217] | 10 to 50 µM |
| Cc1ccc(NC(=O)NC(CCCCN)C(=O)Nc2ccc(C)cc2)cc1 (centres unmarked) [Compound 135] | > 50 µM |
| Cc1ccc(NC(=O)C(CCC(=O)O)NC(=O)OCC2c3ccccc3-c3ccccc32)cc1 (centres unmarked) [Compound 373] | > 50 µM |
| COC(=O)c1ccc(C(=O)NC(C)(C)C(=O)Nc2ccc(CN(C(=O)c3ccco3)C3CCCCC3)cc2)cc1 [Compound 3] | > 50 µM |

Problem: Reported IC50 for HCV RdRp (NS5B) (UniProt P26663), given Cc1ccc(NC(=O)[C@H](CCCCN)NC(=O)CNc2cccc(F)c2)cc1 [Compound 360] ?
Result: 10 to 50 µM

Problem: Reported IC50 for HCV RdRp (NS5B) (UniProt P26663), given NCCCC[C@H](N)C(=O)Nc1ccc(CN(C(=O)c2ccco2)C2CCCCC2)cc1 [Compound 7] ?
Result: > 50 µM

Problem: Reported IC50 for HCV RdRp (NS5B) (UniProt P26663), given CSCCC(NC(=O)OCC1c2ccccc2-c2ccccc21)C(=O)Nc1ccc(C)cc1 (centres unmarked) [Compound 112] ?
Result: > 50 µM

====

IC50 values recorded for HCV RdRp (NS5B) (UniProt P26663)

| compound | obs-value |
| --- | --- |
| NCCCCC(NC(=O)Cc1cccc2ccccc12)C(=O)Nc1ccc(CN(C(=O)c2ccco2)C2CCCCC2)cc1 (stereo in doubt) [Compound 25] | 10 to 50 µM |
| NCCCC[C@H](NC(=O)Nc1ccc(OCc2ccccc2)cc1)C(=O)N1CCCCC1 [Compound 290] | > 50 µM |
| NCCCC[C@H](NC(=O)Nc1ccc(OCc2ccccc2)cc1)C(=O)Nc1ccc(C2CCCCC2)cc1 [Compound 117] | < 10 µM |

Switching to the query record.
Problem: # get_value(readout='IC50', item= NCC(=O)Nc1ccccc1NC(=O)CNC(=O)OCC1c2ccccc2-c2ccccc21 [Compound 311] )
Result: > 50 µM

====

target-or-system: HCV RdRp (NS5B) (UniProt P26663)
pIC50: −log10 of the molar value.
endpoint: pIC50

| compound | endpoint | obs-value |
| --- | --- | --- |
| NCCCCN(CC(=O)Nc1cccc2[nH]ccc12)C(=O)Nc1ccc(OCc2ccccc2)cc1 | pIC50 | < 4.30 |
| NCCCCCCNC(=O)C(Cc1ccccc1)NC(=O)Nc1ccc(OCc2ccccc2)cc1 (centres unmarked) | pIC50 | 4.30 to 5.00 |

Problem: Reported pIC50 for HCV RdRp (NS5B) (UniProt P26663), given Cc1ccc(NC(=O)C(CNC(=O)CCN)NC(=O)OCC2c3ccccc3-c3ccccc32)cc1 (centres unmarked) ?
Result: 4.30 to 5.00

Problem: Reported pIC50 for HCV RdRp (NS5B) (UniProt P26663), given Cc1cccc(NC(=O)[C@H](CCCCN)NC(=O)OCC2c3ccccc3-c3ccccc32)c1 ?
Result: < 4.30

Problem: Reported pIC50 for HCV RdRp (NS5B) (UniProt P26663), given Cc1ccc(NC(=O)C(CCCCN)NC(=O)C(N)Cc2cccc3ccccc23)cc1 (centres unmarked) [Compound 60] ?
Result: < 4.30

Problem: Reported pIC50 for HCV RdRp (NS5B) (UniProt P26663), given COC(=O)c1ccc(COc2ccc(NC(=O)NC(CCCCN)C(=O)Nc3ccc(C)cc3)cc2)cc1 (centres unmarked) ?
Result: 4.30 to 5.00

Problem: Reported pIC50 for HCV RdRp (NS5B) (UniProt P26663), given O=C(CC1CNCCN1C(=O)OCC1c2ccccc2-c2ccccc21)Nc1ccc(C2CCCCC2)cc1 (centres unmarked) ?
Result: 4.30 to 5.00

Problem: Reported pIC50 for HCV RdRp (NS5B) (UniProt P26663), given NCCCC[C@H](NC(=O)OCC1c2ccccc2-c2ccccc21)C(=O)Nc1ccc(C2CCCCC2)cc1 ?
Result: > 5.00
